- methodSummary: Permeability of compound in PBS/EtOH buffer (7:3) at 100 ul and pH 7.4 after 2 hrs and 30 mins by UV plate reader based PAMPA-BBB assay
- Assay type: ADME
- experimentalParameters: read-out: permeability
measuredEndpoint: Papp at 2.5 h (×10⁻⁶ cm/s)

1) O=C(Nc1nc2ccc(Br)cc2s1)c1ccc(N2CCOCC2)cc1 = 4.2
2) O=C(Nc1nc2ccc(F)cc2s1)c1ccccc1 = 15
3) CC(C)c1ccc2nc(NC(=O)c3ccc(N4CCOCC4)cc3)sc2c1 = 4.3

----------
- target: Leucine-rich repeat serine/threonine-protein kinase 2 (Homo sapiens, UniProt Q5S007)
- Sequence (Q5S007 whole entry, the tested form may be a part): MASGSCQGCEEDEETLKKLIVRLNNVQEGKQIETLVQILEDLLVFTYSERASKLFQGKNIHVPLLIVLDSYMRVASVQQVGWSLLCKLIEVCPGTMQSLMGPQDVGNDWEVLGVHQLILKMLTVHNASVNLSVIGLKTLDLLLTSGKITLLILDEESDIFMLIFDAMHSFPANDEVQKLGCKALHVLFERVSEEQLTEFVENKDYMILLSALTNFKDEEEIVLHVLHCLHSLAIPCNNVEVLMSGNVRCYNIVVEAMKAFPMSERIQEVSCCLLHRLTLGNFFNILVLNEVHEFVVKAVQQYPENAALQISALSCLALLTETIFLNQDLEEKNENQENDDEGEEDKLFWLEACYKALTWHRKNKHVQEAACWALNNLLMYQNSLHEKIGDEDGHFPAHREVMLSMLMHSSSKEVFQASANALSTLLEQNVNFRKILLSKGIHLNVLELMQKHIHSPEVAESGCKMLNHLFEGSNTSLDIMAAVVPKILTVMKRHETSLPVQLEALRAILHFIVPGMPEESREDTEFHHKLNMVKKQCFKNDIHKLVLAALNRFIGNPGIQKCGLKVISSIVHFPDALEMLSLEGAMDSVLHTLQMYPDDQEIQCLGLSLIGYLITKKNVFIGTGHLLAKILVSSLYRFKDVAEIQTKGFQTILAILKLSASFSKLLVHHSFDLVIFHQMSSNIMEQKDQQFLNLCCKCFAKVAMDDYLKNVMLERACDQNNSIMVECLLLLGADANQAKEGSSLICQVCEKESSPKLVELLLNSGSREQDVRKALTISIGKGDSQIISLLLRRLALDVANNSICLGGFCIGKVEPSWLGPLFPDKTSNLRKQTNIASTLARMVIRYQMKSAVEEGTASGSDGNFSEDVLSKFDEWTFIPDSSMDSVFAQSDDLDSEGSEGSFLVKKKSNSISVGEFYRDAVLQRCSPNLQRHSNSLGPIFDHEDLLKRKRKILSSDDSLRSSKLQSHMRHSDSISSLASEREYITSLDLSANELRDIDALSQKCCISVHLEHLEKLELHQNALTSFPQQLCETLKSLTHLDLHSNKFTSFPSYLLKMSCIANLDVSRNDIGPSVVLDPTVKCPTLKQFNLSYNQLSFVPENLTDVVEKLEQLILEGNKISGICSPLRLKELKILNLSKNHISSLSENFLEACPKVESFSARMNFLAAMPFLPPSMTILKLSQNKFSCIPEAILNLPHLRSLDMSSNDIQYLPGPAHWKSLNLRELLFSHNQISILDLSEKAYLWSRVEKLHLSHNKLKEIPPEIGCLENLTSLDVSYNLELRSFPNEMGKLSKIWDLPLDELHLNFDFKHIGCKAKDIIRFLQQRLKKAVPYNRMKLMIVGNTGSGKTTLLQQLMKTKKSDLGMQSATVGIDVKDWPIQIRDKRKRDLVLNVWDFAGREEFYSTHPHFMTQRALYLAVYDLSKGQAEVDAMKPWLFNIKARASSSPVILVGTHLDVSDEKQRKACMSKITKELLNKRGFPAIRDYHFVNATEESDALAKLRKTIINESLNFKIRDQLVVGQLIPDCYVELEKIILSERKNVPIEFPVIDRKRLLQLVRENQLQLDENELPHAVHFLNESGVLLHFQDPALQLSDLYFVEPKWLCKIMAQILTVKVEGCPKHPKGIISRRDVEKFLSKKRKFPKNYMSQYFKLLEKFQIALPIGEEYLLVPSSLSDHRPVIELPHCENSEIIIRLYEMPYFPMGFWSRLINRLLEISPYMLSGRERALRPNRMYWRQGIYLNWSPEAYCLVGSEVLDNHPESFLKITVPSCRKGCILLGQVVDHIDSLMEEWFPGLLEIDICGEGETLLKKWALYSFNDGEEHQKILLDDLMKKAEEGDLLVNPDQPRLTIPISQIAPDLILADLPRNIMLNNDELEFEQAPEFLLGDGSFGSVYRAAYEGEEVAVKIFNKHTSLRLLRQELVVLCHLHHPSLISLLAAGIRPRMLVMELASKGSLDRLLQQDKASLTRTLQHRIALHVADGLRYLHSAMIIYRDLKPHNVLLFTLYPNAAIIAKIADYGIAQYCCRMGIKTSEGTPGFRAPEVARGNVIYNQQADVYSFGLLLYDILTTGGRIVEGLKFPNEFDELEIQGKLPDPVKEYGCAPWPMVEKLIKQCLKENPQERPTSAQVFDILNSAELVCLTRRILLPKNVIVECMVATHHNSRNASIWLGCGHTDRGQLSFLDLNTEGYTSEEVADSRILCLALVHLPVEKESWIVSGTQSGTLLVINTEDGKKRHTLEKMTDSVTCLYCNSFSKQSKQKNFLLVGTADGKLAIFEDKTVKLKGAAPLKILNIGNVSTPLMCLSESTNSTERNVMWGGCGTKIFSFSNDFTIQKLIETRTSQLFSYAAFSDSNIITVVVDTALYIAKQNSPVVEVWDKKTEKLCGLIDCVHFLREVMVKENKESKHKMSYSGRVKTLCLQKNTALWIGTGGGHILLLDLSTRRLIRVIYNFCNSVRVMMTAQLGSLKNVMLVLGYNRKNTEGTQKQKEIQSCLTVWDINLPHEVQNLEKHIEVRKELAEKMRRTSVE
- methodSummary: Inhibition of LRRK2 in human iPSC derived neuronal progenitor cells stably expressing TCF/LEF luciferase reporter gene assessed as increase in AXIN2 mRNA expression in absence of Wnt3a by TaqMan probe based RT-PCR analysis
The source made the active and inactive calls. No cut-off for these calls is given here.
measuredEndpoint: inhibition

1. O=C(Nc1nc2ccc(F)cc2s1)c1ccccc1 = inactive
2. O=C(Nc1nc2ccccc2s1)c1ccc(N2CCOCC2)cc1 = inactive
3. O=C(Nc1nc2ccc(F)cc2s1)c1ccc(N2CCOCC2)cc1 = inactive
4. O=C(Nc1nc2ccc(Br)cc2s1)c1ccc(N2CCOCC2)cc1 = inactive

----------
- Test system: Leucine-rich repeat serine/threonine-protein kinase 2 (Homo sapiens), Q5S007 [G2019S]
- Sequence (Q5S007 whole entry G2019S, the tested form may be a part): as the sequence (Q5S007 whole entry, the tested form may be a part) above, with G2019S counted along it
- methodSummary: Inhibition of human GST-tagged LRRK2 G2019S mutant (970 to 2527 residues) expressed in baculovirus expression system assessed as reduction in ADP formation at 10 uM using LRRKtide as substrate measured after 1 hr in presence of ATP by Adapta assay relative to control
Assign true to entries whose inhibition meets or exceeds 70%; assign false to the rest.

1. O=C(Nc1nc2ccc(F)cc2s1)c1ccccc1 = true
2. O=C(Nc1nc2ccccc2s1)c1ccc(N2CCOCC2)cc1 = true
3. CCOc1ccc2nc(NC(=O)c3ccc(N4CCOCC4)cc3)sc2c1 = true
4. O=C(Nc1nc2ccc(F)cc2s1)c1ccc(Cl)cc1 = false
5. O=C(Nc1nc2ccc(Cl)cc2s1)c1ccc(N2CCOCC2)cc1 = false
6. COc1ccc2nc(NC(=O)c3ccc(N4CCOCC4)cc3)sc2c1 = true
7. O=C(Nc1nc2ccc(F)cc2s1)c1ccc(N2CCOCC2)cc1 = false

----------
- target: Leucine-rich repeat serine/threonine-protein kinase 2 (Homo sapiens)
- methodSummary: Inhibition of wild type human GST-tagged LRRK2 (970 to 2527 residues) expressed in baculovirus expression system assessed as reduction in ADP formation at 10 uM using LRRKtide as substrate measured after 1 hr in presence of ATP by Adapta assay relative to control
Each entry below carries its reported inhibition.
measuredEndpoint: inhibition (%)

1) COc1ccc2cc(C(=O)Nc3nc4ccc(F)cc4s3)ccc2c1 = 16
2) O=C(Nc1nc2ccc(F)cc2s1)c1ccc(Cl)cc1 = 68
3) Cc1cccc2sc(NC(=O)c3ccc(N4CCOCC4)cc3)nc12 = 18
4) CCCOc1ccc2nc(NC(=O)c3ccc(N4CCOCC4)cc3)sc2c1 = 13
5) O=C(Nc1nc2ccc(F)cc2s1)c1ccccc1 = 81
6) O=C(Nc1nc2ccc(F)cc2s1)c1ccc(N2CCOCC2)cc1 = 66
7) COc1ccc2nc(NC(=O)c3ccc(N4CCOCC4)cc3)sc2c1 = 73
8) O=C(Nc1nc2ccc(C(F)(F)F)cc2s1)c1ccc(N2CCOCC2)cc1 = 51
9) O=C(Nc1nc2c(Cl)cccc2s1)c1ccc(N2CCOCC2)cc1 = 32
10) O=C(Nc1nc2ccc(Br)cc2s1)c1ccc(N2CCOCC2)cc1 = 75
11) O=C(Nc1nc2ccccc2s1)c1ccc(N2CCOCC2)cc1 = 75
12) O=C(Nc1nc2ccc(Cl)cc2s1)c1ccc(N2CCOCC2)cc1 = 60
13) CCOc1ccc2nc(NC(=O)c3ccc(N4CCOCC4)cc3)sc2c1 = 80
14) Cc1ccc2nc(NC(=O)c3ccc(N4CCOCC4)cc3)sc2c1 = 61
15) CC(C)c1ccc2nc(NC(=O)c3ccc(N4CCOCC4)cc3)sc2c1 = 48
16) CCOC(=O)c1ccc2nc(NC(=O)c3ccc(N4CCOCC4)cc3)sc2c1 = 22
17) CS(=O)(=O)c1ccc2nc(NC(=O)c3ccc(N4CCOCC4)cc3)sc2c1 = 77
18) O=C(CCCC(=O)c1ccccc1)Nc1nc2ccc(F)cc2s1 = 11
